System: Hepatocyte growth factor receptor (Homo sapiens) | Read-out: Ki | Origin: multiple publications

Reference set, count: 8
>>> df
                                   molecule    assay_result
0  Nc1ncc(-c2cnn([C@H]3CCNC3)c2)cc1-c1nnnn1-c1cccc(F)c1F        ≤ 100 nM
1  Nc1ncc(-c2cccc(CO)c2)cc1-c1nnnn1-c1cccc(F)c1F        ≤ 100 nM
2  Nc1nn2cc(-c3ccccc3OC(F)F)cnc2c1-c1ccccn1  500 to 5000 nM
3  Cc1c(C(=O)Nc2ccc(-c3nncc4cnccc34)c(F)c2)c(=O)n(-c2ccccc2)n1C         2380 nM
4  Cc1c(C(=O)Nc2ccc(-c3cccc4cnccc34)c(F)c2)c(=O)n(-c2ccccc2)n1CC(C)(C)O          142 nM
5  Nc1ncc(-c2ccc3c(c2)C(=O)C(=O)N3)cc1-c1nnnn1-c1cccc(F)c1F        ≤ 100 nM
6  COC(=O)C(C)NC(=O)Nc1ccc(-c2cnc(N)c(-c3nnnn3-c3cccc(F)c3F)c2)cc1 (centres unmarked)        ≤ 100 nM
7  CC(C)CN(C)C(=O)c1cccc(-c2cnc3c(-c4ccccn4)c(N)nn3c2)n1        < 500 nM

Quick batch: Ki for everything below.
1. Nc1ncc(-c2cnn([C@@H]3CCCNC3)c2)nc1-c1nnnn1-c1cccc(F)c1F
2. Nc1ccc(-c2cnc3[nH]cc(-c4oncc4-c4cccc(F)c4F)c3c2)cc1
3. CC(=O)Nc1cccc(-c2cnc3[nH]cc(-c4oncc4-c4cccc(F)c4F)c3c2)c1
4. CC(C)C(=O)N1CCC(n2cc(-c3cnc(N)c(-c4nnnn4-c4cccc(Cl)c4F)c3)cn2)CC1
5. CCOC(=O)c1c(N)nn2cc(-c3cnccn3)cnc12
6. Fc1c(Cl)cccc1-c1cnoc1-c1c[nH]c2ncccc12
7. CN(C)CCN(C)C(=O)c1ccc(-c2cnc3c(Cc4ccccc4)c(N)nn3c2)nc1
8. CCN(CCO)C(=O)c1ccc(-c2cnc3c(-c4ccccn4)c(N)nn3c2)nc1

1: ≤ 100 nM; 2: < 200 nM; 3: < 200 nM; 4: ≤ 100 nM; 5: 500 to 5000 nM; 6: < 200 nM; 7: 500 to 5000 nM; 8: < 500 nM

Endpoint output: Ki of NC1NN2C=C(c3cccc(CN4CC[C@H](N)C4)c3)C=NC2=C1c1ccccn1 (some centres unmarked) . Value? < 500 nM
